Measured cAMP EC50, listed per entry.
ASSAY_SYSTEM: human glucagon-like peptide-1 (GLP-1) receptor (human, UniProt P43220 24-463)
EXPERIMENT: cell-based or functional assay
*1 amine or outer side, *2 acyl side, *3 side chain or, on linkers, in order; H or OH if unused. Where no end group is shown, it is not given here. Side-chain parts run from the residue outwards. [ ]: non-standard residue; d: D form. The star is where a group is joined. γGlu = O=C(O)[C@H](CCC(=O)[*:2])N[*:1]; C14 diacid = O=C(O)CCCCCCCCCCCCC(=O)*; αMeY = C[C@](N)(Cc1ccc(O)cc1)C(=O)O; αMeF = C[C@](N)(Cc1ccccc1)C(=O)O; αMeL = CC(C)C[C@](C)(N)C(=O)O; Orn = NCCC[C@H](N)C(=O)O; AEEA = NCCOCCOCC(=O)O; Aib = CC(C)(N)C(=O)O
MEASUREMENT_KIND: cAMP EC50 (nM)

BINDER	MEASUREMENT_KIND	ASSAY_RESULT
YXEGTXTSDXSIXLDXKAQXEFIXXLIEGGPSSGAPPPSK (Aib2, αMeF(2F)6, 4Pal10, αMeL13, Orn16, K17(Z), Aib20, D-Glu24, αMeY25, K40(Z), C-terminal NH2; Z = AEEA2-(γ-Glu)-(11-(4-carboxyphenoxy)undecanoyl)) [Example 285]	cAMP EC50	1.21
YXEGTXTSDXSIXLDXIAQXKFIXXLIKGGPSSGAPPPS (Aib2, αMeF(2F)6, 4Pal10, αMeL13, Orn16, Aib20, K21(Z), D-Glu24, αMeY25, K28(Z), C-terminal NH2; Z = AEEA3-(γ-Glu)-CO-(CH2)12-CO2H) [Example 227]	cAMP EC50	1.22
YXEGTXTSDXSIXLDXIAQXKFIXXLIEGGPSSGAPPPSK (Aib2, αMeF(2F)6, 4Pal10, αMeL13, Orn16, Aib20, K21(Z), D-Glu24, αMeY25, K40(Z), C-terminal NH2; Z = AEEA2-(γ-Glu)-(4-(4-tert-butylphenyl)butanoyl)) [Example 205]	cAMP EC50	0.287
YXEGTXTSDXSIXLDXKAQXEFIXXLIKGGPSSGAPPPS (Aib2, αMeF(2F)6, OMeY10, αMeL13, Orn16, K17(Z), Aib20, D-Glu24, αMeY25, K28(Z), C-terminal NH2; Z = AEEA2-(γ-Glu)-CO-(CH2)12-CO2H) [Example 260]	cAMP EC50	0.547
YXEGTXTSDXSIXLDXIAQXEFIKXLIKGGPSSGAPPPS (Aib2, αMeF(2F)6, 4Pal10, αMeL13, Orn16, Aib20, K24(Z), αMeY25, K28(Z), C-terminal NH2; Z = AEEA2-CO-(CH2)12-CO2H) [Example 192]	cAMP EC50	0.518
Y[Aib]EGT[αMeF]TSDV[Aib]I[αMeL]LD[Orn]K([AEEA-AEEA-γGlu-C14 diacid])AQ[Aib]EFIK([AEEA-AEEA-γGlu-C14 diacid])[αMeY]LIEGGKSSGAPPPS-NH2 (not fully specified) [Example 182]	cAMP EC50	0.185
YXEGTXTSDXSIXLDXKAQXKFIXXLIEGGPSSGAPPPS (Aib2, αMeF(2F)6, 2Nal10, αMeL13, Orn16, K17(Z), Aib20, K21(Z), D-Glu24, αMeY25, C-terminal NH2; Z = AEEA2-(γ-Glu)-CO-(CH2)12-CO2H) [Example 249]	cAMP EC50	0.3
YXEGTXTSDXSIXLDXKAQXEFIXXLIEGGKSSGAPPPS (Aib2, αMeF(2F)6, 4Pal10, αMeL13, Orn16, K17(Z), Ac6c20, D-Glu24, αMeY25, K31(Z), C-terminal NH2; Z = AEEA2-(γ-Glu)-CO-(CH2)12-CO2H) [Example 171]	cAMP EC50	1.7
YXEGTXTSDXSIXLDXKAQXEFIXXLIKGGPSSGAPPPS (Aib2, αMeF(2F)6, OMeY10, αMeL13, Orn16, K17(Z), Aib20, D-Glu24, αMeY25, K28(Z), C-terminal NH2; Z = AEEA2-CO-(CH2)12-CO2H) [Example 266]	cAMP EC50	0.282
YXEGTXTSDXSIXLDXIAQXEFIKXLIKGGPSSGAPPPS (Aib2, αMeF(2F)6, 4Pal10, αMeL13, Orn16, Aib20, K24(Z), αMeY25, K28(Z), C-terminal NH2; Z = AEEA2-(γ-Glu)-(10-(4-carboxyphenoxy)decanoyl)) [Example 274]	cAMP EC50	0.406
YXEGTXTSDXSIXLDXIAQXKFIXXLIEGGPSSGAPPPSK (Aib2, αMeF(2F)6, OMeY10, αMeL13, Orn16, Aib20, K21(Z), D-Glu24, αMeY25, K40(Z), C-terminal NH2; Z = AEEA2-CO-(CH2)12-CO2H) [Example 268]	cAMP EC50	0.613
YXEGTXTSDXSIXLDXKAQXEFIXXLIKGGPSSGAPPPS (Aib2, αMeF(2F)6, OMeY10, αMeL13, Orn16, K17(Z), Aib20, D-Glu24, αMeY25, K28(Z), C-terminal NH2; Z = AEEA2-(γ-Glu)-CO-(CH2)10-CH3) [Example 290]	cAMP EC50	0.324
